Experiment: qHTS for Inhibitors of Inflammasome Signaling: IL-1-beta AlphaLISA Primary Screen; note: % is set by controls: 0 for no effect and ±100 for the full control effect
Settings: THP-1 LPS/ATP IL-1B secretion, 16 h; at 57.5 µM, active compounds read low
Out of some 360,000 compounds screened, about 17,000 (4.7%) were called active. About 5% were inconclusive and are not listed. The sample as a whole holds a higher share of actives than the screen did.
Quantity Measured: activity change (%)

[[record]]
compound = "CC1CCCCC1NC(=O)/C(C#N)=C/C=C/c1ccccc1[N+](=O)[O-] (stereo not given)"
observed_measurement = -103

[[record]]
compound = "CCc1nnc(NC(=O)CCC(=O)N2CCN(c3cc(C)ccc3C)CC2)s1"
observed_measurement = 36.3

[[record]]
compound = "O=S(=O)(c1ccc(Cl)cc1)c1nc(-c2ccco2)oc1N1CCCCC1"
observed_measurement = -10.9

[[record]]
compound = "O=C(COc1ccc(Cl)cc1)NCCS(=O)(=O)N1CCN(c2ccc(F)cc2)CC1"
observed_measurement = 0.652

[[record]]
compound = "Cc1c(C#N)c(NC(=O)c2ccccc2)n(Cc2ccccc2)c1C"
observed_measurement = -78.4

[[record]]
compound = "COCCn1cnnc1SCC(=O)Nc1cccc(S(=O)(=O)N2CCCCC2)c1"
observed_measurement = 5.3

[[record]]
compound = "CCCOC1CCCN(C(=O)c2cc(COc3cncc(Cl)c3)on2)C1 (stereo not given)"
observed_measurement = 0

[[record]]
compound = "COc1ccc(Cn2c(C)c(C)c(C#N)c2NC(=O)Nc2ccc(F)cc2)cc1"
observed_measurement = 31.5

[[record]]
compound = "Cc1ccn(-c2cccc(-n3ccc(C)n3)n2)n1"
observed_measurement = 25.2

[[record]]
compound = "COc1ccc(CCc2nnc(CCC(=O)NCc3cnn(-c4ccccc4C)c3)o2)cc1"
observed_measurement = 0


----------
Assay: qHTS for Inhibitors of Inflammasome Signaling: IL-1-beta AlphaLISA Primary Screen
Settings: THP-1 LPS/ATP IL-1B secretion, 16 h; at 57.5 µM, active compounds read low
Source text: Inflammasomes are a set of intracellular multi-protein complexes that enable autocatalytic activation of inflammatory caspases and drive the innate immune response to counter harmful agents. […] A qHTS assay, based on AlphaLISA technology, was developed to screen the Molecular Libraries Small Molecule Repository (MLSMR) to look for novel inflammasome inhibitors. The assay detects IL-1B using AlphaLISA anti-IL-1B acceptor and donor beads. […]
The whole screen tested about 360,000 compounds, of which about 17,000 (4.7%) were called active. Roughly 5% stayed inconclusive and do not appear here. Only a selection was taken, and actives are over-represented in it overall.
Consider the cut-off -10%. If the recorded activity change is strictly smaller, the label is t; if not, the label is f.

[[record]]
compound = "NC1=CC(=O)C(=O)c2cccnc21"
class_label = "t"

[[record]]
compound = "Cc1nc2ccc(C(=O)N(C)CC3CCCN(CCc4ccc(Cl)cc4)C3)cc2[nH]1 (stereo unspecified)"
class_label = "f"

[[record]]
compound = "CNS(=O)(=O)c1cnccc1N1CCN(c2cccc(C)c2)CC1"
class_label = "f"

[[record]]
compound = "CC(C)=C1SC(N2CCN(c3ccc(C)c(Cl)c3)CC2)=NC1=O"
class_label = "f"

[[record]]
compound = "CC1=C(C(=O)N2CCOCC2)CC(CC(=O)NCC2CCCCC2)C(=O)N1Cc1ccc(F)cc1 (stereo unspecified)"
class_label = "f"

[[record]]
compound = "O=C1c2cccnc2C(=O)N1Cc1cccs1"
class_label = "f"

[[record]]
compound = "COCCN(CCOC)S(=O)(=O)c1ccc(/C(O)=C(\\C#N)c2nc3ccccc3[nH]2)cc1"
class_label = "t"

[[record]]
compound = "COc1cccc(CN(C)CC(=O)NCc2ccccc2Cl)c1OC"
class_label = "f"

[[record]]
compound = "COc1cccc(CN(C)CC2CCCN(CCc3ccc(Cl)cc3)C2)c1OC (stereo unspecified)"
class_label = "t"

[[record]]
compound = "CC(C)(C)c1nnc2sc(SCC(O)=C(C#N)c3nc4ccccc4[nH]3)nn2c1=O"
class_label = "f"


----------
Experiment: qHTS for Inhibitors of Inflammasome Signaling: IL-1-beta AlphaLISA Primary Screen
Conditions: THP-1 LPS/ATP IL-1B secretion, 16 h; at 57.5 µM
In all, about 360,000 compounds went through this assay and about 17,000 (4.7%) were called active. Another 5% or so got no clear call; they are omitted. Rule as the data show it: active = activity change below about -50%; inconclusive = mostly about -30% to -49%; inactive = weaker than that. This is one part of a sample in which actives are shown more often than they occur.
Outcomes: active, inactive

[[record]]
compound = "CCN1/C(=C/C(=S)Nc2ccccc2)Sc2ccccc21"
class_label = "active"

[[record]]
compound = "COc1ccc(CC(=O)Nc2nc(-c3ccc(F)c(F)c3)cs2)cc1OC"
class_label = "active"

[[record]]
compound = "COc1ccc(Nc2nc(NCc3ccco3)nc(N/N=C/c3ccccc3Cl)n2)cc1"
class_label = "inactive"

[[record]]
compound = "C[C@@H]1ON(C)[C@H]2C[C@H]3c4cc(N5CCN(C)CC5)ccc4CCN3C(=O)[C@@H]12"
class_label = "inactive"

[[record]]
compound = "Cn1ccc(=Nc2ccc(NC(=O)c3ccc(N=c4ccn(C)c5ccc([N+](=O)[O-])cc45)cc3)cc2)cc1"
class_label = "inactive"

[[record]]
compound = "Cc1ccccc1-c1nc(CS(=O)(=O)CC(=O)NC(C)c2ccccc2)c(C)o1 (stereo unspecified)"
class_label = "active"

[[record]]
compound = "CN1OC[C@@H]2CN(S(=O)(=O)c3cccc4ccccc34)[C@H](c3ccc(N4CCCCC4)cc3)C[C@@H]21"
class_label = "inactive"

[[record]]
compound = "CC(NC(=S)Nc1ccccc1)C1COc2ccccc2O1 (stereo unspecified)"
class_label = "inactive"

[[record]]
compound = "CN(C)CCCOc1ccc(-c2ccc3nccn3c2)cn1"
class_label = "inactive"

[[record]]
compound = "O=c1oc2c(CN3CCCCC3)c(O)ccc2c2c1CCCCC2"
class_label = "inactive"

[[record]]
compound = "CC1Cc2nc(SCC(=O)Nc3ccccc3F)n(C)c(=O)c2S1 (stereo unspecified)"
class_label = "inactive"

[[record]]
compound = "OCCN1CCN(c2ncnc3c2ncn3[C@H]2CN(Cc3ccco3)C[C@@H](CO)O2)CC1"
class_label = "inactive"

[[record]]
compound = "Cc1cccc(N(CC(=O)N=Nc2c(O)[nH]c3ccccc23)S(C)(=O)=O)c1C"
class_label = "inactive"

[[record]]
compound = "O=C(CCN1CCCCC1)N=Nc1c(O)[nH]c2ccccc12"
class_label = "active"

[[record]]
compound = "CN1CCN(Cc2c(O)ccc3c2oc(=O)c2ccccc23)CC1"
class_label = "active"

[[record]]
compound = "CCOC(=O)N(Cc1ccccc1)C1CC1"
class_label = "inactive"

[[record]]
compound = "COC(=O)c1ccc(CNC(=O)Cn2cc(C)c(=O)[nH]c2=O)cc1"
class_label = "inactive"

[[record]]
compound = "O=C1NC[C@@H](CCCCN2CCN(CCc3ccc(O)cc3)C(=O)C2=O)N(CC2CCCCC2)C1=O"
class_label = "inactive"

[[record]]
compound = "Cc1ccc(CN(C(=O)c2sc3ccccc3c2Cl)C2CCS(=O)(=O)C2)cc1 (stereo unspecified)"
class_label = "inactive"

[[record]]
compound = "CCOC(=O)C1CCCN(C(=O)c2ccc(N(C)C)cc2)CC1 (stereo unspecified)"
class_label = "inactive"

[[record]]
compound = "CCCc1ccc(-c2csc(NC(=O)Cc3cccs3)n2)cc1"
class_label = "inactive"


----------
Test: qHTS for Inhibitors of Inflammasome Signaling: IL-1-beta AlphaLISA Primary Screen
Conditions: THP-1 LPS/ATP IL-1B secretion, 16 h; at 57.5 µM
Hit rate of the full screen: of about 360,000 compounds, about 17,000 (4.7%) were called active. About 5% were inconclusive and are not listed. Rule as the data show it: active = activity change below about -50%; inconclusive = mostly about -30% to -49%; inactive = weaker than that. The sample as a whole holds a higher share of actives than the screen did.
Classes used: label 1 (active), label 0 (inactive)

[[record]]
compound = "COc1ccc(-n2c(Cc3cccn3C)nnc2SCC(=O)Nc2cc(C)cc(C)c2)cc1"
class_label = "label 0"

[[record]]
compound = "O=C(Nc1ccccc1-c1nc2ccccc2[nH]c1=O)c1cccs1"
class_label = "label 0"

[[record]]
compound = "Cc1c(C(=O)NCc2ccc(C#N)cc2)sc(=O)n1Cc1ccc(C(=O)N(C)C)cc1"
class_label = "label 0"

[[record]]
compound = "C=CS(=O)c1sc(Cl)c(N2CCOCC2)c1[N+](=O)[O-] (configuration not stated)"
class_label = "label 1"

[[record]]
compound = "COc1ccc(NC(=O)CCCOc2ccc(C(C)=O)cc2)cc1S(=O)(=O)N1CCCCC1"
class_label = "label 0"

[[record]]
compound = "CC(=O)c1c(C)[nH]c(C(=O)COC(=O)c2cccc(S(=O)(=O)N(C)c3ccccc3)c2)c1C"
class_label = "label 0"

[[record]]
compound = "Cc1ccc(-c2csc(NC(=O)C3=COCCO3)n2)cc1C"
class_label = "label 1"

[[record]]
compound = "COc1ccccc1-c1cc2nc(NCc3cccc(Cl)c3)ccn2n1"
class_label = "label 0"

[[record]]
compound = "COc1cccc(CNS(=O)(=O)c2ccc3c(c2)CC(C)N3C(C)=O)c1 (configuration not stated)"
class_label = "label 0"

[[record]]
compound = "COc1ccc(N(C)S(=O)(=O)c2ccc3c(c2)CC(C)N3C(=O)C2CC2)c(OC)c1 (configuration not stated)"
class_label = "label 1"

[[record]]
compound = "CCN1CCCC1CNc1ncnc2c1[nH]c1ccc(F)cc12 (configuration not stated)"
class_label = "label 1"

[[record]]
compound = "CCC1C=C(c2ccccc2)C=CN=C1N(CC)CC (configuration not stated)"
class_label = "label 0"

[[record]]
compound = "CCN1CCCC1CNC(=O)c1cc2cc(OC)c(OC)cc2[nH]1 (configuration not stated)"
class_label = "label 0"

[[record]]
compound = "C[C@@H]1Cn2cnc(C(=O)Nc3ccc(CNC(=O)OC(C)(C)C)cc3)c2C(=O)N1"
class_label = "label 0"

[[record]]
compound = "COc1cc2c(cc1OC)C(c1cccc([N+](=O)[O-])c1)=NCC2"
class_label = "label 0"

[[record]]
compound = "COCc1c(N)c(C)nc(Cl)c1C#N"
class_label = "label 0"

[[record]]
compound = "CC(C)OCCCNc1ncnc2c1[nH]c1ccc(F)cc12"
class_label = "label 1"

[[record]]
compound = "CCN1CCCC1Cn1cnc2c([nH]c3cc(OC)ccc32)c1=O (configuration not stated)"
class_label = "label 0"

[[record]]
compound = "CC(=O)c1ccccc1NC(=O)COC(=O)C1COc2ccccc2O1 (configuration not stated)"
class_label = "label 0"

[[record]]
compound = "C/C(=N\\Nc1ccccc1)c1cccs1"
class_label = "label 0"

[[record]]
compound = "C/C(=N\\Nc1nc2ccccc2[nH]1)c1cccs1"
class_label = "label 1"

[[record]]
compound = "O=C(N[C@H]1CC[C@H](CC(=O)N2CCCCC2)O[C@@H]1CO)c1cccc(F)c1"
class_label = "label 0"


// provenance: PubChem BioAssay AID743279
